Consider the following compounds and their measured pIC50 readings.
experimentalSystem: beef heart cAMP phosphodiesterase
procedureSummary: Inhibition of beef heart cAMP phosphodiesterase
experimentalParameters: read-out: I50, Beef Heart
Counter-ions that a name gives are not always drawn.
Keep it numeric: pIC50 is minus log10 of the concentration in mol/L.

compound	observed
O=C(Nc1ccccc1)Nc1ncnc2c1nc(SCc1ccccc1)n2[C@@H]1O[C@@H]2COP(=O)(O)O[C@H]2[C@H]1O [Compound 15]	4.85
CNC(=O)Nc1ncnc2c1nc(Br)n2[C@@H]1O[C@@H]2COP(=O)(O)O[C@H]2[C@H]1OC(=O)NC [Compound 11]	3.59
Cn1c(=O)c2[nH]cnc2n(C)c1=O [Theophylline, reference compound]	3.89

Ask: Please look up its pIC50: O=C(Nc1ccccc1)Nc1ncnc2c1ncn2[C@@H]1O[C@@H]2COP(=O)(O)O[C@H]2[C@H]1O [Compound 7]
Result: 4.66

Ask: Please look up its pIC50: O=C(Nc1ccccc1)Nc1ncnc2c1nc(SCc1ccccc1)n2[C@@H]1O[C@@H]2COP(=O)(O)O[C@H]2[C@H]1OC(=O)Nc1ccccc1 [Compound 12, phosphate sodium salt]
Result: 4.66

Ask: Please look up its pIC50: O=C(Nc1ccccc1)Nc1ncnc2c1ncn2[C@@H]1O[C@@H]2COP(=O)(O)O[C@H]2[C@H]1OC(=O)Nc1ccccc1 [Compound 4, phosphate sodium salt]
Result: 4.03

Ask: Please look up its pIC50: CCOC(=O)Nc1ncnc2c1ncn2[C@@H]1O[C@@H]2COP(=O)(O)O[C@H]2[C@H]1O [Compound 8]
Result: 3.89

====

experimentalSystem: rabbit lung cAMP phosphodiesterase
procedureSummary: Inhibition of rabbit lung cAMP phosphodiesterase
Assay type: biochemical
experimentalParameters: read-out: I50, Rabbit Lung
Counter-ions that a name gives are not always drawn.
quantityKind: pIC50
Keep it numeric: pIC50 is minus log10 of the concentration in mol/L.

Guide cases for pIC50, answers given:
compound	observed
O=C(Nc1ccccc1)Nc1ncnc2c1ncn2[C@@H]1O[C@@H]2COP(=O)(O)O[C@H]2[C@H]1OC(=O)Nc1ccccc1 [Compound 4, phosphate sodium salt]	3.72
Cn1c(=O)c2[nH]cnc2n(C)c1=O [Theophylline, reference compound]	3.64
O=C(Nc1ccccc1)Nc1ncnc2c1nc(SCc1ccccc1)n2[C@@H]1O[C@@H]2COP(=O)(O)O[C@H]2[C@H]1OC(=O)Nc1ccccc1 [Compound 12, phosphate sodium salt]	5.00
CNC(=O)Nc1ncnc2c1nc(Br)n2[C@@H]1O[C@@H]2COP(=O)(O)O[C@H]2[C@H]1OC(=O)NC	3.89
O=C(Nc1ccccc1)Nc1ncnc2c1nc(SCc1ccccc1)n2[C@@H]1O[C@@H]2COP(=O)(O)O[C@H]2[C@H]1O	4.68

Ask: Lab note: need pIC50 with rabbit lung cAMP phosphodiesterase for entry CCOC(=O)Nc1ncnc2c1ncn2[C@@H]1O[C@@H]2COP(=O)(O)O[C@H]2[C@H]1O , please look it up.
Result: 3.68

Ask: Lab note: need pIC50 with rabbit lung cAMP phosphodiesterase for entry O=C(Nc1ccccc1)Nc1ncnc2c1ncn2[C@@H]1O[C@@H]2COP(=O)(O)O[C@H]2[C@H]1O , please look it up.
Result: 3.80
